A collection of compounds and their measured inhibition
biological target: Indoleamine 2,3-dioxygenase 1 (Homo sapiens, UniProt P14902); assay: Inhibition of IDO1 in IFNgamma-stimulated human A375 cells assessed as reduction in L-Kyn level at 1 uM measured after 48 hrs by HPLC analysis relative to control
Sequence (P14902 whole entry, looked up): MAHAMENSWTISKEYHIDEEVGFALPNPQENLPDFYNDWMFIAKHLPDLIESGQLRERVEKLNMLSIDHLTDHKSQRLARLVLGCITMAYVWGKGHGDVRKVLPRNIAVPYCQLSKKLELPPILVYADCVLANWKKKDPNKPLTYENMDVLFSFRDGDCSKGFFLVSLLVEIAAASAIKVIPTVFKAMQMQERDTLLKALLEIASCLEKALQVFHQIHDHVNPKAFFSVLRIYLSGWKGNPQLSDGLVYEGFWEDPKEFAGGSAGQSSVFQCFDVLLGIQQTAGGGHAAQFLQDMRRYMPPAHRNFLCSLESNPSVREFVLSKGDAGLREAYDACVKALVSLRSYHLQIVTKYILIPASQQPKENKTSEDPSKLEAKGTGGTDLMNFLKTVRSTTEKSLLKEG
assayEndpoint: inhibition (%)

>>> print(df.to_string())
                                  smilesrepr  assayendpoint  unitinfo  valuemeasured
 0  O=C(NCc1cccc(Cn2cnc3ccccc32)c1)c1cc2ccccc2[nH]1     inhibition         %             94
 1  Cc1ccc2[nH]c(C(=O)NCc3cccc(Cn4cnc5ccccc54)c3)cc2c1     inhibition         %             90
 2  O=C(NCc1cccc(Cn2cnc3ccccc32)c1)c1cc2ccccc2s1     inhibition         %             77
 3       NCCCC(=O)NCc1cccc(Cn2cnc3ccccc32)c1     inhibition         %              0
 4  O=C(NCc1cccc(Cn2cnc3ccc(Br)cc32)c1)c1cc(Br)c[nH]1     inhibition         %             98
 5   CC(=O)NCC(=O)NCc1cccc(Cn2cnc3ccccc32)c1     inhibition         %              0
 6  O=C(NCc1cccc(Cn2cnc3ccccc32)c1)c1ccc(C(F)(F)F)cc1     inhibition         %             81
 7  O=C(NCc1cccc(Cn2cnc3ccccc32)c1)c1ccc(Br)cc1     inhibition         %             98
 8   O=C(NCc1cccc(Cn2cnc3ccccc32)c1)c1ccccc1     inhibition         %             32
 9  O=C(NCc1cccc(Cn2cnc3ccccc32)c1)c1cc2ccccc2o1     inhibition         %             91
10  O=C(NCc1cccc(Cn2cnc3ccccc32)c1)c1ccc(F)cc1     inhibition         %             88
11  O=C(NCc1cccc(Cn2cnc3ccccc32)c1)c1ccc(Cl)cc1     inhibition         %             99
12  Cc1ccc(C(=O)NCc2cccc(Cn3cnc4ccccc43)c2)cc1     inhibition         %             88
13  N#Cc1ccc(C(=O)NCc2cccc(Cn3cnc4ccccc43)c2)c(F)c1     inhibition         %             37
14  N#Cc1ccc(C(=O)NCc2cccc(Cn3cnc4ccccc43)c2)cc1     inhibition         %             88
15    O=C(NCc1cccc(Cn2cnc3ccccc32)c1)c1ccco1     inhibition         %             25
16  O=C(NCc1cccc(Cn2cnc3ccccc32)c1)c1cc2cc(O)ccc2[nH]1     inhibition         %             71

---

assay: Cytotoxicity against human A375 cells assessed as cell viability at 1 uM measured after 48 hrs by MTT assay relative to control; format: cell-based, A-375; details: read-out: Activity
assayEndpoint: viability at 48 h, 1 µM (%)

>>> df
                                 smilesrepr  unitinfo  valuemeasured
0    O=C(NCc1cccc(Cn2cnc3ccccc32)c1)c1ccco1         %            100
1  O=C(CNC(=O)c1ccccc1)NCc1cccc(Cn2cnc3ccccc32)c1         %             99
2  O=C(NCc1cccc(Cn2cnc3ccccc32)c1)c1cc2ccccc2s1         %             88
3  O=C(NCc1cccc(Cn2cnc3ccccc32)c1)c1ccc[nH]1         %             94
4  O=C(NCc1cccc(Cn2cnc3ccccc32)c1)c1ccc(C(F)(F)F)cc1         %             97
5  N#Cc1ccc(C(=O)NCc2cccc(Cn3cnc4ccccc43)c2)cc1         %            100
6       NCCCC(=O)NCc1cccc(Cn2cnc3ccccc32)c1         %            100
